system: MALME-3M melanoma; experiment: NCI tumour cell line growth inhibition, 48 h

| molecule | measured_target | GI50 |
| --- | --- | --- |
| O=C(Cn1c2ccccc2c2ccncc21)N/N=C\c1ccc2ccccc2c1 | MALME-3M melanoma | 11.4 µM |
| COc1cc(NC(=O)c2cc(O)c(C/C=C(\C)CCC=C(C)C)c(O)c2)cc2c1O[C@]1(C)CC[C@@H](O)C(C)(C)[C@H]1C2 | MALME-3M melanoma | 1.62 µM |
| c1ccc(/C(=N\Nc2ccc3ccccc3n2)c2ccccn2)cc1 | MALME-3M melanoma | 0.546 µM |
| O=c1[nH]nc(-c2ccccc2)c2c(-c3ccccc3)onc12 | MALME-3M melanoma | 0.751 µM |
| Cc1cc(Cl)ccc1Nc1nc(C(F)(F)F)ccc1C(=O)Nc1cccc(C(F)(F)F)c1 | MALME-3M melanoma | 1.97 µM |
| Cc1ccc(-c2c3c(N)c4c(nc3nc3c2c(C)nn3-c2ccccc2)CCC4)cc1 | MALME-3M melanoma | 18.4 µM |
| O=C(CN1C(=O)S/C(=C\C(Cl)=C\c2ccccc2)C1=O)NCCCn1ccnc1 | MALME-3M melanoma | 1.82 µM |
| NS(=O)(=O)c1ccc(N2N=C(c3cccs3)CC2c2ccccc2O)cc1 (configuration not stated) | MALME-3M melanoma | 4.81 µM |
| O=[N+]([O-])c1cc2c(ccc3occc32)o1 | MALME-3M melanoma | 1.54 µM |
| CCCC(CCC)C(=O)OCC1(CO)C/C(=C\c2ccc(C(F)(F)F)cc2)C(=O)O1 (configuration not stated) | MALME-3M melanoma | 16.4 µM |
| O=C1NC(SCc2ccc(F)cc2)=N/C1=C/c1cccc(OCc2ccc(Cl)cc2)c1 | MALME-3M melanoma | 26.5 µM |
| NCCSC(C[N+](=O)[O-])c1ccccc1Cl (configuration not stated) | MALME-3M melanoma | 16.3 µM |

----------
system: DMS 273 small cell lung; assay: NCI tumour cell line growth inhibition, 48 h

| structure | result_operator | TGI / µM |
| --- | --- | --- |
| CC#Cc1c(C#CC)c(OC)c2c(c1OC)C(=O)c1ccccc1C2=O | > | 100 |
| O=c1cc(-c2ccc(O)cc2)oc2cc(O)cc(O)c12 | = | 40.2 |
| CCCc1cc(-c2ccc(-c3cc(CCC)c(C=O)[nH]3)s2)[nH]c1C=O | > | 100 |
| CC1(C)N=C(Oc2ccccc2)n2nccc2N1 | > | 100 |
| O=C1c2ccccc2C(=O)c2c(O)c(NCCNCCO)cc(O)c21 | = | 12 |
| COc1cc(/C=C\c2ccc(Cl)cc2)cc(OC)c1OC | = | 19.4 |

----------
test system: OVCAR-5 ovarian; assay: NCI tumour cell line growth inhibition, 48 h
Where a SMILES comes first, the peptide text is derived from it.
TGI reference
property_name: TGI

| compound | measured_target | measured_result |
| --- | --- | --- |
| CCOC(=O)Oc1ccc2c(c1)c(=O)c1c(NCCCN(CC)CC)ccc3nnn2c31 | OVCAR-5 ovarian | 33.5 µM |
| CC(=O)O/N=C/c1cc2c(cc1Br)OCO2 | OVCAR-5 ovarian | > 349 µM |
| CC1=C(C)C(=O)C(C2=C(C3=CC(=O)C(C)=C(C)C3=O)C(=O)c3ccccc3C2=O)=CC1=O | OVCAR-5 ovarian | 32.2 µM |
| O=C(Cn1c2ccccc2c2ccncc21)N/N=C\c1ccc2ccccc2c1 | OVCAR-5 ovarian | > 100 µM |
| Cc1ccccc1NC(=O)c1cc2ccccc2cc1O | OVCAR-5 ovarian | 85.6 µM |
| CN(C)CC1=Nc2cccc3cccc(c23)N1 | OVCAR-5 ovarian | 31.6 µM |
| NCCC1([N+](=O)[O-])CCNCC1 | OVCAR-5 ovarian | > 100 µM |
| CC(=O)Oc1cc(S(=O)(=O)Nc2n[nH]c(N)n2)c(S)cc1Cl | OVCAR-5 ovarian | > 100 µM |
| CCc1n[nH]c(=S)n1/N=C\c1ccc(-c2ccccc2[N+](=O)[O-])o1 | OVCAR-5 ovarian | > 100 µM |
| O=C1c2c(ccc3c2CCCC3)CC1Cc1ccc2c(c1)CCCC2 (stereo not drawn) | OVCAR-5 ovarian | > 100 µM |
| CC1=C(C(=O)NC(C)(C)C)CC(C(=O)NC(C)(C)C)C(C)N1 (stereo not drawn) | OVCAR-5 ovarian | > 100 µM |
| O=C1Cc2ccccc2CCc2ccsc21 | OVCAR-5 ovarian | > 100 µM |
| CCc1nc(N)nc(N)c1C#CC(C)c1cc(-c2ccnc(C)c2)c2oc(C)nc2c1 (stereo not drawn) | OVCAR-5 ovarian | 13.6 µM |
| CN(C)C(=S)SCC(N)=O | OVCAR-5 ovarian | > 100 µM |
| C/C(=N\NC(=S)Nc1ccc(Cl)cc1)c1nc2ncccc2[nH]1 | OVCAR-5 ovarian | 21.3 µM |
| CC(=O)O[C@H]1CC[C@@]2(C)C(=C/C(=N\[N+](=O)[O-])[C@H]3C4CCC([C@H](C)CCCC(C)C)[C@@]4(C)CCC32)C1 (stereo partly drawn) | OVCAR-5 ovarian | > 100 µM |
| c1ccc(/C(=N\Nc2ccc3ccccc3n2)c2ccccn2)cc1 | OVCAR-5 ovarian | 43 µM |
| NCCSC(C[N+](=O)[O-])c1ccccc1Cl (stereo not drawn) | OVCAR-5 ovarian | 10.4 µM |
| O=C(NC1C=Nc2ccccc2NC1=O)c1ccccc1Cl (stereo not drawn) | OVCAR-5 ovarian | > 100 µM |
| CN(CCO)/N=N/c1nc[nH]c1C(N)=O | OVCAR-5 ovarian | > 100 µM |
| O=[N+]([O-])c1cc2c(ccc3occc32)o1 | OVCAR-5 ovarian | 15.4 µM |
| Nc1ccc(C2=Nc3ccccc3SC(c3ccccc3O)C2)cc1 (stereo not drawn) | OVCAR-5 ovarian | > 100 µM |
| C=C(C)C(=O)O[C@H]1CC2=CC(CC(C)=C[C@H]3OC(=O)C(=C)C13)OC2=O (stereo partly drawn) | OVCAR-5 ovarian | > 100 µM |
| O=C(CC(=O)C1CCOC1=O)C(=O)Nc1ccc(Cl)cc1 (stereo not drawn) | OVCAR-5 ovarian | > 100 µM |
| CC(=O)Nc1nnc(S(=O)(=O)NC(=S)Nc2ccc(Cl)cc2)s1 | OVCAR-5 ovarian | > 100 µM |
| COc1cc2c(Cc3cc(OCc4ccccc4)ccc3N)nccc2c(OC)c1OC | OVCAR-5 ovarian | > 10 µM |
| Cn1c2ccccc2c2[nH]c3ccccc3c(=O)c21 | OVCAR-5 ovarian | > 100 µM |
| Cc1ccccc1NC(=O)CSc1nnc(Cc2ccccc2)o1 | OVCAR-5 ovarian | > 100 µM |
| CC(=O)NC(CO)C(=O)NC(Cc1ccc(O)cc1)C(=O)NCC(N)=O (stereo not drawn) (Ac-Ser-Tyr-Gly-NH2; configuration not given here) | OVCAR-5 ovarian | > 100 µM |
| O=S(=O)(N/N=C/c1ccc(Cl)cc1Cl)c1ccccc1 | OVCAR-5 ovarian | > 100 µM |
| OC1(c2ccc3ccccc3c2)c2c(c3ccccc3c3ccccc23)C2=NCCN21 (stereo not drawn) | OVCAR-5 ovarian | > 83.7 µM |
| CC(C)=CCc1cc(C2COc3cc4c(c(O)c3C2=O)C=CC(C)(C)O4)c(O)cc1O (stereo not drawn) | OVCAR-5 ovarian | 29.7 µM |
| NC(=O)N/N=C(\CCC(=O)N(Cc1ccccc1)Cc1ccccc1)CC(=O)c1ccc(F)cc1 | OVCAR-5 ovarian | > 100 µM |
| COc1cc(-c2oc3c(OC)c(O)cc(O)c3c(=O)c2OC)ccc1O | OVCAR-5 ovarian | 78.7 µM |
| CC(C)(C)N=c1n(C(C)(C)C)oc(=O)n1-c1ccccc1 | OVCAR-5 ovarian | > 50 µM |
| COC(=O)Nc1nc2ccc(S(=O)(=O)c3ccc(NC(=O)Nc4cc(C(F)(F)F)ccc4F)cc3)cc2[nH]1 | OVCAR-5 ovarian | > 25 µM |
| CCCCN(CCCC)CCC(O)c1cc2ccc(C(F)(F)F)cc2c2cc(C(F)(F)F)ccc12 (stereo not drawn) | OVCAR-5 ovarian | 12.8 µM |
| Cn1c(=O)sc2cc(C(=S)N3CCN(c4ccccc4)CC3)ccc21 | OVCAR-5 ovarian | > 100 µM |

----------
TGI reference
tested on: NCI-H23 lung; test: NCI tumour cell line growth inhibition, 48 h
property_name: TGI (µM)

| molecule | result_units | result_operator | measured_result |
| --- | --- | --- | --- |
| Cc1cn(Cc2ccccc2CCl)c(=O)n(Cc2ccccc2CCl)c1=O | µM | = | 5.43 |
| CCN1C(=O)CS/C1=N\NC(=O)CSc1nc2ccccc2c(=O)n1CC | µM | > | 100 |
| CC1=C(C(=O)NC(C)(C)C)CC(C(=O)NC(C)(C)C)C(C)N1 (stereo not given) | µM | > | 100 |
| CN(CCCN(C)CCC1CCCCC1)CCC1CCCCC1 | µM | = | 22.1 |
| [O-][n+]1c2cc(CN3CCOCC3)c(CN3CCOCC3)cc2[n+]([O-])c2c(O)cccc21 | µM | = | 8.88 |
| O=[N+]([O-])c1ccc2[nH]c(O)c(N=NC(=S)Nc3ccccc3)c2c1 | µM | = | 25.8 |
| O=C1OC(OC/C(Br)=C(/Br)COC2OC(=O)C(Cl)=C2Cl)C(Cl)=C1Cl (stereo not given) | µM | = | 22.5 |
| NNC(=S)N/N=C(/C(=O)Nc1ccc([N+](=O)[O-])cc1)c1nc2ccc([N+](=O)[O-])cc2[nH]c1=O | µM | > | 100 |
| O=S(=O)(N/N=C/c1ccc(Cl)cc1Cl)c1ccccc1 | µM | > | 100 |
| Cc1cn2c(/C=C3/C(=O)Nc4ccccc43)c(C)nc2s1 | µM | > | 100 |
